A collection of binders and their measured fold change of affinity
# SYSTEM NAME: T1, Human CD137 ECD (human)
# T1 construct: also called 4-1BB
# T1 sequence (chain, as listed by the source limits assumed): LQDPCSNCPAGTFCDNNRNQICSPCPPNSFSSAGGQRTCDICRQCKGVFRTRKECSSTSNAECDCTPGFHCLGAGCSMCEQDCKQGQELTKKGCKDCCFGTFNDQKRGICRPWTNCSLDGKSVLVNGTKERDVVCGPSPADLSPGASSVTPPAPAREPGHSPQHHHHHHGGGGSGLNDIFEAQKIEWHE
# ASSAY: single mutant vs template dBBDu183H
Answer with a number only, understood to be in fold.

binder="H183/L072 VH H35F (antibody, name in Kabat numbering, V domains shown) VH: QVQLVESGGGLVQPGRSLRLSCAASGFTFSNAWMFWVRQAPGKGLEWVAQIKDKGNAYAAYYAPSVKGRFTISRDDSKNSIYLQMNSLKTEDTAVYYCHYVHYASASTVLPAFGVDAWGQGTTVTVSS VL: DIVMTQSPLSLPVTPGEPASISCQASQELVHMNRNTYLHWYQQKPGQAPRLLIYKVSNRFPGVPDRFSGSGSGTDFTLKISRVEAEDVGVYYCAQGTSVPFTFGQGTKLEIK" outcome_measure="fold change of affinity" u=fold recorded_measurement=4.3

Next binder, fold change of affinity to be filled in.
Request the reported fold change of affinity associated with H183/L072 VH K52bV (antibody, name in Kabat numbering, V domains shown) VH: QVQLVESGGGLVQPGRSLRLSCAASGFTFSNAWMHWVRQAPGKGLEWVAQIKDVGNAYAAYYAPSVKGRFTISRDDSKNSIYLQMNSLKTEDTAVYYCHYVHYASASTVLPAFGVDAWGQGTTVTVSS VL: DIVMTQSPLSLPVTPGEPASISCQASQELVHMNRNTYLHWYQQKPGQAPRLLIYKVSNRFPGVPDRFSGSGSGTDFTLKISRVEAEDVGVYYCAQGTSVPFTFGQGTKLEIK 0.6
